Where do the numbers come from? From paper PMC9572811.

Molecular target: α-amylase (Sus scrofa)
Sequence (P00690 16-511): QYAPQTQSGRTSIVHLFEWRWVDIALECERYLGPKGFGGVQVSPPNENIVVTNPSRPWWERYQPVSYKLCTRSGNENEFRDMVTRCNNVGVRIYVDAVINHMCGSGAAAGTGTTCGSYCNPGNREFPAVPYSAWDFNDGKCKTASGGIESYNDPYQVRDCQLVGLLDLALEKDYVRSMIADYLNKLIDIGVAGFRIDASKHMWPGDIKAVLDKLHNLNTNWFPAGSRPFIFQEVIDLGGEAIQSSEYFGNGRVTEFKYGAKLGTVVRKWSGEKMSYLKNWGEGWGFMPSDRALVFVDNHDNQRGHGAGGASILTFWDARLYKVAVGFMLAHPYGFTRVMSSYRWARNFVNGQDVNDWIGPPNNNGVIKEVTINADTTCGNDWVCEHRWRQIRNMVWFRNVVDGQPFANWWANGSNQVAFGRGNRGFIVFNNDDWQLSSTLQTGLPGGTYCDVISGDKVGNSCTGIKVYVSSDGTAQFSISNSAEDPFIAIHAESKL
Test: α-amylase inhibition assay
Assay type: biochemical, Porcine
attribute-measured: pIC50
In plain terms, pIC50 is the concentration in mol/L turned into minus its base-10 logarithm.

For the compound `O=[N+]([O-])c1ccc(/C(CSc2nc3ccccc3[nH]2)=N\Nc2nc(-c3ccc(Cl)c(Cl)c3)cs2)cc1` , report pIC50.
5.66
